Reference source for all entries: the supplement of paper PMC8728848

# Tgt: GalNAc(b1-3)Gal(a1-4)Gal(b1-4)GlcNAc(b1-3)Gal(b1-4)Glc
# Test Details: glycan array binding signal (z-score within array); higher = stronger binding
# Applied Conditions: glycan notation: IUPAC condensed, linker removed
This is one part of a sample in which the strongest signals are shown more often than they occur.
Reported Property: glycan array binding signal (z-score)
Respond using a number only.

{"columns": ["Binder", "glycan array binding signal (z-score)"],
 "data": [
  ["CGL (Crenomytilus grayanus), H2FH31 (protein) MTTFLIKHKASGKFLHPYGGSSNPANNTKLVLHSDIHERMYFQFDVVDERWGYIKHVASGKIVHPYGGQANPPNETNMVLHQDRHDRALFAMDFFNDNIMHKGGKYIHPKGGSPNPPNNTETVIHGDKHAAMEFIFVSPKNKDKRVLVYA", 0.074]
]}

In one line, give reported glycan array binding signal (z-score) of the entry EUL D1A (Oryza sativa) (protein) MFGFGHHHNQAPAAPSDPNQIFKIFCRANENYCLTVRDSAVVLAPVNPKDEHQHWFKDMRFSTKVKDGEGMPAFALVNKATGLAVKHSLGQSHPVKLVPFNPEYEDASVLWTESKDVGKGFRCIRMVNNTRLNLDAFHGDKDHGGVRDGTTVVLWEWCKGDNQSWKILPWGPEAHSSSPGAATACTIGGVPVHTVRVFSAAGEDYCLTVRNGTACLAPKNPRDDYQHWIKDMRHSNKIRDEEGYPAFALVNKVTGEAIKHSTGQGHPVKLVPYNPEYQDESVLWTESKDVGKGFRCIRMVNNIYLNFDAFHGDKDHGGIHDGTEIVLWKWCEGDNQRWKILPWILEQKLISEEDLNSAVDHHHHHH . -0.333
